Quick reference: IC50 of the listed items.
System: MDA-MB-231 breast cancer cells
assay name: Anti-proliferative assay (cell-titre luminescent), MDA-MB-231
Format: cell-based
particulars: Homo sapiens; MDA-MB-231, 72 hours, luminescence
Description: The ability of compounds 2002, 2009 and 2013-2064 to inhibit the proliferation of cancer cells representative of neuroblastoma, melanoma, prostate cancer, colorectal cancer, non-small cell lung carcinoma, and triple negative breast cancer was assessed. These studies were conducted by contract research (GVK-BIO). […] Luminescence was captured using an EnVision multilabel reader and the data for each analogue concentration compared against no treatment control. […]
// note: answer is a bare numeric in µM

CCN(CC)CCCn1c(C)c(/C=C/C(=O)N2CCN(CCc3cccc(OC)c3)CC2)c2cc(OC)ccc21 : 5.6

Let us move to another entry and its IC50.
Q: Using the record for Cc1c(/C=C/C(=O)N2CCN(CCc3ccccc3)CC2)c2ccccc2n1CCCN(C)C , report its IC50.
Result: 18.5

###

Tested on: MDA-MB-231 breast cancer cells
assay name: Anti-proliferative assay (cell-titre luminescent), MDA-MB-231
Assay type: cell-based
particulars: Homo sapiens; MDA-MB-231, 72 hours, luminescence
readout: IC50 (µM)
// note: answer is a bare numeric in µM

COc1ccc2c(c1)c(/C=C/C(=O)N1CCN(CCc3ccccc3)CC1)c(C)n2CCCN1CCN(C)CC1 : 13.7
CCOc1ccc2c(c1)c(C(=O)N1CCN(CCc3ccc(F)cc3)CC1)c(C)n2CCCN1CCN(C)CC1 : 5.8
Cc1c(/C=C/C(=O)N2CCN(CCc3ccc4c(c3)OCO4)CC2)c2ccccc2n1CCCN(C)C : 6.2
COc1ccc2c(c1)c(/C=C/C(=O)N1CCN(CCc3ccc4c(c3)OCO4)CC1)c(C)n2CCCN1CCN(C)CC1 : 5.2

Next compound, IC50 to be filled in.
Q: For CCOc1ccc2c(c1)c(/C=C/C(=O)N1CCN(CCc3ccc(F)cc3)CC1)c(C)n2CCCN(C)C , what is its reported IC50?
Result: 3

###

Recorded IC50 for the following compounds
System: PC3 prostate cancer cells
assay name: Anti-proliferative assay (cell-titre luminescent), PC3
Format: cell-based
particulars: PC3, 72 hours, luminescence
Method: The ability of compounds 2002, 2009 and 2013-2064 to inhibit the proliferation of cancer cells representative of neuroblastoma, melanoma, prostate cancer, colorectal cancer, non-small cell lung carcinoma, and triple negative breast cancer was assessed. These studies were conducted by contract research (GVK-BIO). […] Luminescence was captured using an EnVision multilabel reader and the data for each analogue concentration compared against no treatment control. […]
Just the number in µM, nothing appended.

Past entries and their recorded results:
COc1ccc2c(c1)c(/C=C/C(=O)N1CCN(CCc3ccc4c(c3)OCO4)CC1)c(C)n2CCCN1CCN(C)CC1 [Compound 2031] : 2.1
COc1ccc2c(c1)c(/C=C/C(=O)N1CCN(CCc3ccc(F)cc3)CC1)c(C)n2CCCN(C)C [Compound 2018] : 8
COc1ccc2c(c1)c(C(=O)N1CCN(CCc3ccc(F)cc3)CC1)c(C)n2CCCN(C)C [Compound 2044] : 11
COc1ccc(CCN2CCN(C(=O)c3c(C)n(CCCN4CCN(C)CC4)c4ccc(OC)cc34)CC2)cc1 [Compound 2057] : 9
COc1ccc2c(c1)c(/C=C/C(=O)N1CCN(CCc3ccc(F)cc3)CC1)c(C)n2CCCN1CCN(C)CC1 [Compound 2029] : 2.9
CCN(CC)CCCn1c(C)c(/C=C/C(=O)N2CCN(CCc3cccc(F)c3)CC2)c2cc(OC)ccc21 [Compound 2026] : 5.2
COc1ccc2c(c1)c(/C=C/C(=O)N1CCN(CCc3ccccc3)CC1)c(C)n2CCCN(C)C [Compound 2009] : 30
Cc1c(/C=C/C(=O)N2CCN(CCc3cccc(F)c3)CC2)c2ccccc2n1CCCN(C)C [Compound 2015] : 12.4

Q: What does the data say about its IC50? Entry: CCOc1ccc2c(c1)c(/C=C/C(=O)N1CCN(CCc3ccc(F)cc3)CC1)c(C)n2CCCN(C)C [Compound 2035]
Result: 5.6

Q: Would you mind doing CCN(CC)CCCn1c(C)c(/C=C/C(=O)N2CCN(CCc3ccc(F)cc3)CC2)c2cc(OC)ccc21 [Compound 2023] as well?
Result: 5.6

Q: Now the compound COc1ccc2c(c1)c(C(=O)N1CCN(CCc3ccc(F)cc3)CC1)c(C)n2CCCN1CCN(C)CC1 [Compound 2056]
Result: 10.8

Q: Entry COc1ccc2c(c1)c(/C=C/C(=O)N1CCN(CCc3cccc(F)c3)CC1)c(C)n2CCCN1CCN(C)CC1 [Compound 2032] please
Result: 6.8

Q: # iterate: COc1cccc(CCN2CCN(C(=O)/C=C/c3c(C)n(CCCN4CCN(C)CC4)c4ccc(OC)cc34)CC2)c1 [Compound 2033]
Result: 6.8

Q: What about Cc1c(/C=C/C(=O)N2CCN(CCc3ccc(F)cc3)CC2)c2ccccc2n1CCCN(C)C [Compound 2002] ?
Result: 22.5

###

Parameter IC50: see the listing below.
Test system: PC3 prostate cancer cells
assay name: Anti-proliferative assay (cell-titre luminescent), PC3
Format: cell-based
particulars: PC3, 72 hours, luminescence
Protocol: The ability of compounds 2002, 2009 and 2013-2064 to inhibit the proliferation of cancer cells representative of neuroblastoma, melanoma, prostate cancer, colorectal cancer, non-small cell lung carcinoma, and triple negative breast cancer was assessed. These studies were conducted by contract research (GVK-BIO). […] Luminescence was captured using an EnVision multilabel reader and the data for each analogue concentration compared against no treatment control. […]
Hi! Could you send only the number? It should be in µM, unit omitted.

Q: Form field: reported IC50 of COc1ccc2c(c1)c(C(=O)N1CCN(CCc3cccc(F)c3)CC1)c(C)n2CCCN1CCN(C)CC1
Result: 9.2

Q: Can you handle COc1ccc2c(c1)c(C(=O)N1CCN(CCc3ccc4c(c3)OCO4)CC1)c(C)n2CCCN(C)C next?
Result: 20.3

###

Tested on: PC3 prostate cancer cells
assay name: Anti-proliferative assay (cell-titre luminescent), PC3
Type: cell-based
particulars: PC3, 72 hours, luminescence
readout: IC50

COc1ccc(CCN2CCN(C(=O)c3c(C)n(CCCN(C)C)c4ccc(OC)cc34)CC2)cc1 [Compound 2045] : > 30 µM
COc1cccc(CCN2CCN(C(=O)c3c(C)n(CCCN(C)C)c4ccc(OC)cc34)CC2)c1 [Compound 2048] : > 30 µM

Q: Which IC50 is listed for CCN(CC)CCCn1c(C)c(C(=O)N2CCN(CCc3ccc(OC)cc3)CC2)c2cc(OC)ccc21 [Compound 2051] ?
Result: > 30 µM

###

Tested on: MDA-MB-231 breast cancer cells
assay name: Anti-proliferative assay (cell-titre luminescent), MDA-MB-231
Format: cell-based
particulars: Homo sapiens; MDA-MB-231, 72 hours, luminescence
readout: IC50

CCN(CC)CCCn1c(C)c(/C=C/C(=O)N2CCN(CCc3cccc(F)c3)CC2)c2cc(OC)ccc21 : 4.3 µM
Cc1c(/C=C/C(=O)N2CCN(CCc3ccc(F)cc3)CC2)c2ccccc2n1CCCN(C)C : 11.5 µM
COc1ccc(CCN2CCN(C(=O)/C=C/c3c(C)n(CCCN(C)C)c4ccc(OC)cc34)CC2)cc1 : 5.1 µM
CCOc1ccc2c(c1)c(C(=O)N1CCN(CCc3ccc(F)cc3)CC1)c(C)n2CCCN(C)C : 8.1 µM
CCOc1ccc2c(c1)c(/C=C/C(=O)N1CCN(CCc3ccc(F)cc3)CC1)c(C)n2CCCN1CCN(C)CC1 : 5 µM
COc1ccc2c(c1)c(C(=O)N1CCN(CCc3ccccc3)CC1)c(C)n2CCCN(C)C : 7.5 µM
Cc1c(/C=C/C(=O)N2CCN(CCc3cccc(F)c3)CC2)c2ccccc2n1CCCN(C)C : 21.1 µM

Q: Query for MDA-MB-231 breast cancer cells: what IC50 does the record show for COc1ccc2c(c1)c(/C=C/C(=O)N1CCN(CCc3ccc4c(c3)OCO4)CC1)c(C)n2CCCN(C)C ?
Result: 5.1 µM

###

Reported IC50 is given for each of the following molecules.
Tested on: PC3 prostate cancer cells
assay name: Anti-proliferative assay (cell-titre luminescent), PC3
Assay type: cell-based
particulars: PC3, 72 hours, luminescence

Known results for molecules:
Cc1c(C(=O)N2CCN(CCc3ccc4c(c3)OCO4)CC2)c2ccccc2n1CCCN(C)C : > 30 µM
Cc1c(C(=O)N2CCN(CCc3ccccc3)CC2)c2ccccc2n1CCCN(C)C : > 30 µM

Now look at this entry.
Q: Item Cc1c(C(=O)N2CCN(CCc3cccc(F)c3)CC2)c2ccccc2n1CCCN(C)C has what recorded IC50?
Result: > 30 µM

###

Tested on: PC3 prostate cancer cells
assay name: Anti-proliferative assay (cell-titre luminescent), PC3
Type: cell-based
particulars: PC3, 72 hours, luminescence
Threshold 7 µM. IC50 below it: MET. IC50 at it or above: NOT MET.

CCN(CC)CCCn1c(C)c(/C=C/C(=O)N2CCN(CCc3ccccc3)CC2)c2cc(OC)ccc21 : MET
CCOc1ccc2c(c1)c(/C=C/C(=O)N1CCN(CCc3ccc(F)cc3)CC1)c(C)n2CCCN(CC)CC : MET
CCN(CC)CCCn1c(C)c(/C=C/C(=O)N2CCN(CCc3ccc(OC)cc3)CC2)c2cc(OC)ccc21 : MET
COc1cccc(CCN2CCN(C(=O)/C=C/c3c(C)n(CCCN(C)C)c4ccccc34)CC2)c1 : MET
COc1ccc2c(c1)c(C(=O)N1CCN(CCc3cccc(F)c3)CC1)c(C)n2CCCN(C)C : NOT MET
COc1ccc2c(c1)c(/C=C/C(=O)N1CCN(CCc3ccc4c(c3)OCO4)CC1)c(C)n2CCCN(C)C : MET
COc1ccc2c(c1)c(/C=C/C(=O)N1CCN(CCc3ccccc3)CC1)c(C)n2CCCN1CCN(C)CC1 : NOT MET
CCN(CC)CCCn1c(C)c(/C=C/C(=O)N2CCN(CCc3cccc(OC)c3)CC2)c2cc(OC)ccc21 : NOT MET

Q: For this compound, is IC50 lower than 7 µM? COc1ccc(CCN2CCN(C(=O)/C=C/c3c(C)n(CCCN4CCN(C)CC4)c4ccc(OC)cc34)CC2)cc1
Result: MET

Each recorded value in this set is attributed to patent US20170157135A1.
